Cited source for all entries: PubChem BioAssay AID602293

assay name: qHTS for antagonists of the Thyroid Stimulation Hormone Receptor: Hit Validation in HTRF Activity in a Luteinizing Hormone Receptor Cell Line
experimental context: LHR-expressing cell line, cAMP HTRF, antagonist mode; series mostly up to 58 µM
Hit rate of the full screen: of about 1,300 compounds, about 30 (2%) were called active. Another 10% or so got no clear call; they are omitted. The call rests on the fitted dose curve; in most records, active means well fitted inhibition curve with a large enough effect; inconclusive means small, poorly fitted or top-dose-only effect; inactive means flat fitted curve, though single readings scatter. For the sample, actives were picked, then their nearest neighbours and some compounds at random.
Pick from 1.0 for active, 0.0 for inactive when you respond.

Returns: the outcome recorded for O=C(NC1CCCCC1)C(c1cccs1)N(Cc1cccs1)C(=O)c1cccs1 (configuration not stated) in this assay. 0.0

Field entry: "Cc1cccc(NC(=O)c2ccc(Cl)c(S(=O)(=O)N3CCc4ccccc43)c2)n1" 0.0

Field entry: O=C(Nc1ccccc1Cl)/C(Cl)=C(\Cl)S(=O)c1ccccc1 (configuration not stated) 0.0

Field entry: COc1ccc(NC(=O)/C(Cl)=C(/Cl)S(=O)Cc2ccccc2Cl)cn1 (configuration not stated) 1.0

Field entry: COc1ccc(-c2nc(CS(=O)CC(=O)NCc3ccccc3)c(C)o2)cc1OC (configuration not stated) 0.0

Field entry: "COc1ccc(CC(=O)Nc2cccc(-c3nnc(-c4cccc(C)c4)o3)c2)cc1OC" 1.0

Field entry: "COc1cccc(CN(C)C(=O)c2ccc(OCC(=O)Nc3cccc(C(F)(F)F)c3)c(OC)c2)c1" 0.0

====

assay name: qHTS for antagonists of the Thyroid Stimulation Hormone Receptor: Hit Validation in HTRF Activity in a Luteinizing Hormone Receptor Cell Line
experimental context: LHR-expressing cell line, cAMP HTRF, antagonist mode; series mostly up to 58 µM
The whole screen tested about 1,300 compounds, of which about 30 (2%) were called active. Roughly 10% stayed inconclusive and do not appear here. Calls follow the shape of the dose curve; as a rule, active = well fitted inhibition curve with a large enough effect; inconclusive = small, poorly fitted or top-dose-only effect; inactive = flat fitted curve, though single readings scatter. The entries come from a sample that favours actives as a whole.
Pick from 1 (active), -1 (inactive) when you respond.

Returns: the outcome recorded for "O=S(=O)(Nc1ccc2cn[nH]c2c1)c1cc(Br)ccc1Br" in this assay. -1

Field entry: "CC(C)c1ccccc1OCCNC(=O)c1cccnc1" -1

Field entry: "CCn1nc(C)cc1-c1nnc(Sc2ncc([N+](=O)[O-])s2)n1C" 1

Field entry: "COC(=O)CCN(Cc1cc(OC)ccc1OC)S(=O)(=O)c1ccccc1Br" -1

Field entry: "O=C(Nc1ccc(Oc2ccc(Cl)cc2)c(Cl)c1)c1cc(I)cc(I)c1O" -1

Field entry: CC(Sc1nn(-c2ccc(F)cc2)c(=S)s1)C(=O)c1c(N)n(C)c(=O)n(C)c1=O (stereo not drawn) -1

Field entry: "Cc1sc2ncnc(N3CCN(CCOc4ccc(Cl)cc4)CC3)c2c1C" -1

Field entry: "COc1ccc(CCNC2=C(Cl)C(=O)N(CCc3ccc(OC)c(OC)c3)C2=O)cc1OC" 1

Field entry: "CN(C)S(=O)(=O)c1cccc(-c2nnc(SCc3ccc4c(c3)OCCO4)o2)c1" -1

Field entry: "Nc1nc(SCc2ccccc2Cl)ns1" -1

Field entry: "CCOC(=O)CCS(=O)(=O)c1nc(-c2ccccc2)cc(C(F)(F)F)n1" -1

Field entry: "C/C(=N\Nc1cc(C)nc(-c2ccccc2O)n1)c1ccccc1" -1

Field entry: "COc1cc([N+](=O)[O-])cc(/C=C2/SC(=S)N(Cc3ccccc3)C2=O)c1O" -1

Field entry: "CCc1ccccc1NC(=O)CN1CCN(C(=O)CNC(=O)Cc2cccc3ccccc23)CC1" -1

Field entry: "O=C(Nc1ncc(S(=O)(=O)c2ccc([N+](=O)[O-])cc2)s1)c1ccc2ccccc2c1" -1

Field entry: "Cc1cccc(N2CCN(S(=O)(=O)c3ccc4c(c3)NC(=O)CS4)CC2)c1C" -1

Field entry: CCOc1ccc2nc(SC3CC(=O)N(c4ccccc4)C3=O)sc2c1 (stereo not drawn) -1

Field entry: "COc1ccc(CCNC2=C(Cl)C(=O)N(CCc3ccccc3)C2=O)cc1OC" -1

Field entry: "COc1ccccc1CNC(=O)CSc1nc(N)c(C#N)c(-c2cccs2)c1C#N" -1

Field entry: Cc1ccc(C(=O)C2=C(O)C(=O)N(c3ncccn3)C2c2ccccc2F)o1 (stereo not drawn) -1

Field entry: "Cc1ccc(-c2cc(C(=O)Nc3ccncc3)c3ccccc3n2)cc1" -1

Field entry: COC(=O)c1ccc(CN2C(=O)NC(Cc3c[nH]c4ccccc34)C2=O)cc1 (stereo not drawn) -1

Field entry: Cc1ccc(C)c(N2CCN(C(=O)C(Cc3ccccc3)n3cccc3)CC2)c1 (stereo not drawn) -1

Field entry: "CCC(=O)NC1=C(Cl)C(=O)C(NC(=O)CC)=C(Cl)C1=O" 1

Field entry: "Cc1ccc(S(=O)(=O)Nc2ccccc2N2CCCCC2)cc1" -1

Field entry: "O=c1c(Sc2ccccc2)c(C(F)(F)F)[nH]n1-c1ccccc1" -1

Field entry: "CCCCNc1c(-c2cccc(-c3ccc(OC)cc3)c2)nc2ccc(C)cn12" -1

Field entry: "COc1ccc(CNC(=O)Cn2nc(Cc3cccnc3)c3ccccc3c2=O)cc1" -1

Field entry: "CCn1c(Cl)c(C=O)s/c1=N\S(=O)(=O)c1ccccc1" 1

Field entry: CCCC(=NC(C)CC)C1=C(O)CC(c2ccccc2)CC1=O (stereo not drawn) -1

Field entry: "CCCCCCSc1ccc(-c2nc3ccc(Cl)cn3c2NCCCC)cc1OC" -1

Field entry: "COc1ccc(NS(=O)(=O)c2cc(-c3cnc(C4CC4)o3)ccc2C)cc1" -1

Field entry: CCCCCCOc1ccc(NC(=O)CC2C(=O)N(CC)C(=S)N2Cc2ccco2)cc1 (stereo not drawn) -1

Field entry: "COc1ccc(-c2cc(-c3nc4ccccn4c3NCc3ccccc3)ccc2OC)cc1" 1

Field entry: "CSc1nc(-c2ccc(Cl)cc2Cl)[nH]c(=O)c1C#N" -1

Field entry: "CCOc1ccccc1N1CCN(C(=O)CCCN2C(=O)c3cccc4cccc(c34)C2=O)CC1" -1

Field entry: "CC1CCN(c2ccccc2NC(=O)c2cc([N+](=O)[O-])ccc2N2CCOCC2)CC1" -1

Field entry: "Cn1c(=O)c(C(=O)NNC(=O)c2cccc(Cl)c2)c(O)c2ccccc21" -1

Field entry: "Cc1cccc(OCC(=O)Nc2nc3ccc([N+](=O)[O-])cc3s2)c1C" -1

Field entry: CN1CCN(C2=CC3=CC(=C(C#N)C#N)CCC3CC2)CC1 (stereo not drawn) -1

Field entry: "Cc1cc(OCC(=O)Nc2cccc(S(=O)(=O)N3CCCC3)c2)ccc1Cl" -1

Field entry: "COc1ccc(/C=N/NC(=O)c2ccoc2C)cc1COc1c(C)cccc1C" -1

Field entry: "COc1cc2sc3ccc(-c4ccc(CN5CCOCC5)cc4)cc3c(=O)c2cc1OC" -1

====

assay name: qHTS for antagonists of the Thyroid Stimulation Hormone Receptor: Hit Validation in HTRF Activity in a Luteinizing Hormone Receptor Cell Line
experimental context: LHR-expressing cell line, cAMP HTRF, antagonist mode; series mostly up to 58 µM
About 30 (2%) of roughly 1,300 compounds were called active. Another 10% or so got no clear call; they are omitted. Calls come from the whole dose curve; as a rule, active = well fitted inhibition curve with a large enough effect; inconclusive = small, poorly fitted or top-dose-only effect; inactive = flat fitted curve, though single readings scatter. The list comes from a sample in which actives are over-represented; it also holds close analogues and randomly drawn compounds.
Pick from active, inactive when you respond.

Returns: the outcome recorded for "O=C(Nc1nc2c(s1)CCCC2)c1ccc2ncsc2c1" in this assay. inactive

Field entry: "CCn1c(=NC(=O)CSC(C)=O)sc2cc(OC)ccc21" inactive

Field entry: "O=C1CCCN1c1ccc(S(=O)(=O)Oc2ccc(Cl)cc2)cc1[N+](=O)[O-]" inactive

Field entry: "O=S(=O)(Nc1cccnc1)c1ccc(C2CCCCC2)cc1" inactive

Field entry: "O=C(COC(=O)c1cc(S(=O)(=O)N2CCOCC2)c(Cl)cc1Cl)c1ccc[nH]1" inactive

Field entry: "COc1ccc(OC)c(NC(=O)c2cc(S(=O)(=O)NCc3ccco3)ccc2F)c1" inactive

Field entry: "CCOC(=O)Cc1csc(NC(=O)COc2ccc(N(C)S(=O)(=O)c3cccs3)cc2)n1" inactive

Field entry: "Cc1ccccc1NC(=O)c1cc2ccccn2n1" inactive

Field entry: "O=C(CSc1nc2cc(Cl)c(Cl)cc2[nH]1)c1ccc2c(c1)OCO2" inactive

Field entry: "O=C1C=CC(=O)N1CCCCCCN1C(=O)C=CC1=O" active

Field entry: "O=S(=O)(Nc1cccc(-c2cn3cccnc3n2)c1)c1ccc(-c2ccccc2)cc1" inactive

Field entry: "COc1cc(/C=C(\C#N)c2ccccn2)ccc1OCc1ccc(Cl)cc1" inactive

Field entry: "COc1cccc(N2CCN(c3ncnc4c3cnn4-c3ccc(C)cc3C)CC2)c1" active

Field entry: "O=S(=O)(c1ccc(SCc2ccc(Cl)cc2)nc1)N1CCCC1" inactive

Field entry: "COc1cccc(-c2nc(-c3ccc(NC(=O)c4cccnc4)cc3)no2)c1" inactive

Field entry: "COc1ccc2cc(/C=C3\SC(=S)NC3=O)c(N3CCOCC3)nc2c1" inactive

Field entry: "CCOc1cc(N2CCOCC2)c(OCC)cc1NC(=O)c1cc(S(=O)(=O)N2CCOCC2)ccc1C" inactive

Field entry: "CC(=O)NC1=C(Nc2ccc(N(C)C)cc2)C(=O)c2ccccc2C1=O" inactive

Field entry: "O=C1C(SCCO)=C(SCCO)C(=O)c2ccccc21" active

Field entry: "CCCCn1c(-c2c(Cl)c(C)nn2C)n[nH]c1=S" inactive

Field entry: "Clc1ccc(CSc2nnc(CNc3cccc(Cl)c3)o2)cc1" inactive

Field entry: "O=C(OCCc1cc2ccccc2c(=O)o1)c1ccccc1C(F)(F)F" inactive

Field entry: "O=C(Nc1cccc(Cl)c1)Nc1ccc(Br)cc1F" inactive

Field entry: "CCOC(=O)N1CCN(C(=O)c2ccc3c(c2)N=C(CC)c2cc(C)ccc2S3)CC1" inactive

Field entry: "O=C(Oc1c(Br)cc([N+](=O)[O-])cc1Br)c1cccnc1" inactive

Field entry: "Cc1ccc2cccc(Oc3ncnc4scc(-c5ccccc5)c34)c2n1" inactive

Field entry: "Brc1ccc(CNc2ccc3ncccc3c2)cc1" inactive

Field entry: "Cc1cccc2c1NC(=O)C2(c1ccc(O)cc1)c1ccc(O)cc1" inactive

Field entry: "COc1ccc(OC)c(NC(=O)CSc2ncnc3c2cnn3-c2ccccc2Cl)c1" inactive

Field entry: "OCCSc1nnc(Nc2ccccc2)s1" inactive

Field entry: "c1ccc2c(CSc3ncnc4nc[nH]c34)cccc2c1" inactive

Field entry: "CCSc1nsc(NC(=O)Nc2cccc(OC)c2)n1" inactive

Field entry: "CN(C)c1ccc(NC(=S)c2ccc3ccccc3n2)cc1" inactive

Field entry: COc1cc(C(C(=O)NCc2ccccc2)N(C(=O)c2snc(C(N)=O)c2N)C2CCCC2)cc(OC)c1OC (stereo not given) inactive

Field entry: CC1Cc2ccccc2N1C(=O)COC(=O)/C=C/c1cccc(F)c1 (stereo not given) inactive

Field entry: "Cc1c(Cl)sn(-c2ccc(Cl)cc2)c1=O" inactive

Field entry: "N=c1oc2ccccc2cc1C(=O)NC1CCCCCC1" inactive

Field entry: "O=C1C(Cl)=C(Nc2ccc(O)cc2)C(=O)c2ccccc21" inactive

Field entry: COc1ccc(CNC(=O)C(C)OC(=O)c2cccs2)cc1 (stereo not given) inactive

Field entry: COc1ccc(CNC(=O)C(c2ccco2)N(C(=O)c2snc(C(N)=O)c2N)c2cccc(OC)c2)cc1 (stereo not given) active

Field entry: CC1=NN(C(N)=S)C(=O)C1N=Nc1c(Br)cc(Br)cc1Br (stereo not given) inactive

Field entry: "Cc1cccc(/C=C/C(=O)c2cc(Br)ccc(=O)c2O)c1" inactive

Field entry: "O=C(Nc1ccc(SC(F)F)cc1)c1ccc2c(=O)n3c(nc2c1)CCC3" inactive

Field entry: "O=S(=O)(Nc1cc(Cl)ccc1-n1cncn1)c1cc(Br)ccc1Br" inactive

Field entry: "CC(C)(C)OC(=O)NCCCCCc1cn([C@@H](CO)C(=O)NCCCCCCCCCCC(=O)N2CCN(C(=O)OC(C)(C)C)CC2)nn1" active
